System: CCRF-CEM
Assay: NCI tumour cell line growth inhibition, 48 h
Calls of active or inactive are those of the source. Rule as the data show it: active = GI50 up to about 1.1 µM and inactive = higher.
property.name: GI50

{"columns": ["compound", "property.name", "reported.value"],
 "data": [
  ["CC1(C)CCCC2(C)[C@@H]1CC[C@]13C[C@](C)(CC[C@@H]21)[C@@H]3CO (stereo not given in full)", "GI50", "> 100 µM (inactive)"],
  ["COP(=O)(OC)C(C)(C)NC(=O)NC(F)(F)F", "GI50", "> 100 µM (inactive)"],
  ["O=c1[nH]nc(-c2ccccc2)n1-c1cccc([N+](=O)[O-])c1", "GI50", "> 100 µM (inactive)"],
  ["Cc1nn(C(=O)c2ccccc2O)c2c1C(c1ccc([N+](=O)[O-])cc1)SC(=N)N2 (stereo not given)", "GI50", "3.32 µM (inactive)"],
  ["CC(C)(c1ccc(Oc2ccc(C#N)c(C#N)c2)cc1)c1ccc(Oc2ccc(C#N)c(C#N)c2)cc1", "GI50", "> 10 µM (inactive)"]
]}

---

# maps each entry to its GI50
System: SF-295
Experiment: NCI tumour cell line growth inhibition, 48 h
The source made the active and inactive calls. No stated cut-off is given here; in the data, active = GI50 up to about 1.1 µM and inactive = higher.
property.name: GI50

{"columns": ["compound", "property.name", "reported.value"],
 "data": [
  ["O=C1NC(N2CCCCC2)=N/C1=C\\c1ccccc1O", "GI50", "> 100 µM (inactive)"],
  ["CCCCCCCCCCCCCC(=O)NCO", "GI50", "> 100 µM (inactive)"],
  ["Cc1nn(C(=O)c2ccccc2O)c2c1C(c1ccc([N+](=O)[O-])cc1)SC(=N)N2 (configuration not stated)", "GI50", "3.13 µM (inactive)"],
  ["O=C1c2c(nc3ccccc3c2-c2ccccc2)CN1Nc1ccccn1", "GI50", "60.1 µM (inactive)"],
  ["COc1cc2oc(=O)cc(C)c2cc1O", "GI50", "> 100 µM (inactive)"],
  ["COC12C=CC(CC1)c1c(O)ccc(O)c12 (configuration not stated)", "GI50", "> 90.8 µM (inactive)"],
  ["[N-]=[N+]=C(C(=O)C(=[N+]=[N-])C(=O)c1ccccc1)C(=O)c1ccccc1", "GI50", "> 100 µM (inactive)"],
  ["COc1ccc(/C(=N\\NC(=O)C(N)=O)C(c2ccc(OC)cc2)C2(O)C(=O)Nc3c(Cl)cccc32)cc1 (configuration not stated)", "GI50", "> 100 µM (inactive)"],
  ["COc1ccc(N2C(=O)C3c4[nH]c5ccccc5c4C4CC(C)(C)CC(C)(C)C4C3C2=O)cc1 (configuration not stated)", "GI50", "8.05 µM (inactive)"],
  ["COC(=O)C12OC(C)(C(CC(=O)OC(C)(C)C)C1=O)C1C(=O)N(c3ccccc3)C(=O)C12 (configuration not stated)", "GI50", "> 100 µM (inactive)"],
  ["CC(C)(C)OC(=O)N(CCCN)CCCCN", "GI50", "> 100 µM (inactive)"],
  ["CN(C(=O)c1ccc([N+](=O)[O-])cc1)c1ccccc1", "GI50", "> 100 µM (inactive)"],
  ["CCOc1cc2c(OCc3ccccc3)cc3c4cc(OC)c(OC)cc4c[n+](C)c3c2cc1OC", "GI50", "8.57 µM (inactive)"],
  ["NC1=Nc2ccccc2Sc2nnc(-c3ccc(Cl)cc3)n21", "GI50", "29.6 µM (inactive)"],
  ["CC(=O)Oc1cc(OC(C)=O)c(OC(C)=O)c2c1CC1C(=O)C3(CCc4ccccc43)C(=O)C1C2 (configuration not stated)", "GI50", "4.61 µM (inactive)"],
  ["COc1cc(NS(C)(=O)=O)ccc1N1Cc2c[nH]c3ccc4nc(C)cc1c4c23", "GI50", "54.8 µM (inactive)"],
  ["Cc1ccn2c(CCc3nnc4cc(C)ccn34)nnc2c1", "GI50", "> 100 µM (inactive)"],
  ["CC(=O)C1=NN(c2ccccc2)C2(S1)SC(c1ccccc1)(c1ccccc1)c1ccccc12 (configuration not stated)", "GI50", "26.9 µM (inactive)"],
  ["N#CCCN(c1ccc(/C=N/c2ccc(C(=O)O)cc2)cc1)S(=O)(=O)c1ccccc1", "GI50", "> 100 µM (inactive)"],
  ["CCOC(=O)c1c(N2CCN(C)CC2)[nH]c(=O)c(C(c2c(Cl)cccc2Cl)c2c(O)c(C(=O)OCC)c(N3CCN(C)CC3)[nH]c2=O)c1O", "GI50", "28.1 µM (inactive)"],
  ["CCC1=C(C)C(=O)N/C1=C\\c1[nH]c(C)c([C@H](C)CCN)c1C", "GI50", "16.5 µM (inactive)"],
  ["CO/C(N)=C(C#N)/N=C/c1ccccc1", "GI50", "> 100 µM (inactive)"],
  ["NCCCNc1ccc2c(c1)[n+]([O-])c1ccccc1[n+]2[O-]", "GI50", "28.8 µM (inactive)"],
  ["CC1=C2C(=O)c3ccccc3C(=O)[C@H]2[C@H]2CCO[C@H]2O1", "GI50", "23 µM (inactive)"],
  ["CN(C)CCCCN1c2ccccc2Sc2cc(N=[N+]=[N-])ccc21", "GI50", "1.96 µM (inactive)"],
  ["CC[C@@H]1CC[C@@H]2[C@H](CC[C@]3(C)[C@@H](O[N+](=O)[O-])CC[C@@H]23)[C@H]1C(C)=O", "GI50", "42.6 µM (inactive)"],
  ["COc1ccc(N2C(=O)CC(=O)N(NC(=O)C(C)Oc3ccccc3C)C2=S)cc1 (configuration not stated)", "GI50", "> 100 µM (inactive)"],
  ["Brc1ccc(C[P+]2(c3ccccc3)CCCCC2)cc1.[O-][Cl+3]([O-])([O-])[O-]", "GI50", "> 100 µM (inactive)"],
  ["COc1cc2nc(-c3cccc(N(C)C)c3)cc(O)c2cc1OC", "GI50", "2.58 µM (inactive)"],
  ["CC1CC/C(=C\\c2ccc(Cl)cc2)c2nc(N)c(C#N)c(-c3ccc(Cl)cc3)c21 (configuration not stated)", "GI50", "44.1 µM (inactive)"],
  ["Cn1c2cc(Cl)ccc2c2ccc3c(c21)C(=O)C=CC3=O", "GI50", "> 100 µM (inactive)"],
  ["O=C1c2cc([N+](=O)[O-])ccc2-c2cccc(F)c21", "GI50", "> 100 µM (inactive)"],
  ["C[N+](C)(C)C1=NNC2=Nc3ccccc3SC2=C1", "GI50", "9.42 µM (inactive)"],
  ["COc1ccccc1-n1c(C)nc2ccccc2c1=O", "GI50", "> 100 µM (inactive)"],
  ["Cc1sc2c(c1C)/C(=N\\O)c1cccn1-2", "GI50", "54.7 µM (inactive)"],
  ["O=C(CCl)NC(Cc1ccc(F)cc1)C(=O)O (configuration not stated)", "GI50", "> 100 µM (inactive)"],
  ["COC(=O)c1ccccc1C1CN=NC12Cc1ccc3ccccc3c1C2=O (configuration not stated)", "GI50", "38.5 µM (inactive)"],
  ["COc1cc(C2=C(c3cc(OC)c4ccccc4c3OC)C(=O)c3ccccc3C2=O)c(OC)c2ccccc12", "GI50", "> 100 µM (inactive)"],
  ["COC(=O)C1CC(C(=O)OC)c2nc3cc(C)c(C)cc3nc21 (configuration not stated)", "GI50", "> 100 µM (inactive)"],
  ["CC(O)C(O)C(N)CC=O (configuration not stated)", "GI50", "> 500 µM (inactive)"],
  ["FC(F)(F)C1(c2ccccc2)SCc2nc3ccccc3n21 (configuration not stated)", "GI50", "> 100 µM (inactive)"],
  ["O=C1c2ccccc2C(=O)N1[C@@H](Cc1ccccc1)C(=O)n1cccc1CO", "GI50", "> 100 µM (inactive)"]
]}
